target: PDGF-receptor beta enzyme comprising the tyrosine kinase domain (Homo sapiens, UniProt P09619); construct: from amino acid 545 to 1106 of GenBank Access NO: AAA36427; test: Inhibition of PDGF-receptor kinase activity (cell-free, PLC1 peptide, 33P Flashplate); type: biochemical; conditions: PDGF-R kinase activity; compound at 10 uM; read-out: Percent Inhibition @ 10 uM
Sequence (P09619 545-1106): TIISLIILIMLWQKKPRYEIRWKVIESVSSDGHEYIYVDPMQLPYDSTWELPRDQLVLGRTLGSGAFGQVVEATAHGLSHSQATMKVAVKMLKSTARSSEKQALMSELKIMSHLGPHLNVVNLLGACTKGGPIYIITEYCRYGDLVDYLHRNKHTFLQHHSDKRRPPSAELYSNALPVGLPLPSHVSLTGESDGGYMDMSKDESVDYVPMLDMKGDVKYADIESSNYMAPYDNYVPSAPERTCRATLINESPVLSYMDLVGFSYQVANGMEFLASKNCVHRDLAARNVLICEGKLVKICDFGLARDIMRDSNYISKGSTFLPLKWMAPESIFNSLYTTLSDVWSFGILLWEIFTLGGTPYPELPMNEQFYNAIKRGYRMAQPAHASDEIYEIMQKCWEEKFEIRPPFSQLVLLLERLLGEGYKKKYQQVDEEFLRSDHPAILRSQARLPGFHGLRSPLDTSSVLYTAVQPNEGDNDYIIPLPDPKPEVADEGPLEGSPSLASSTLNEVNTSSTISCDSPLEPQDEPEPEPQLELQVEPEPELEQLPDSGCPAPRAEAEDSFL
Each item that follows carries a reported inhibition at 10 µM.
Recorded metric: inhibition at 10 µM (%)

INSERT INTO results (compound, recorded_metric, scale_unit, experimental_result) VALUES
  ('COc1cc2c(cc1OC)-c1n[nH]c(Nc3ccc(Cl)cc3)c1C2', 'inhibition at 10 µM', '%', 91),
  ('CCOc1cc2c(cc1OCC)C(C)c1c-2n[nH]c1Nc1cccnc1 (stereo not drawn)', 'inhibition at 10 µM', '%', 88),
  ('COc1cc2c(cc1OC)-c1n[nH]c(NCC3CCCCC3)c1C2', 'inhibition at 10 µM', '%', 73),
  ('CC1c2ccccc2-c2n[nH]c(Nc3cccnc3)c21 (stereo not drawn)', 'inhibition at 10 µM', '%', 83),
  ('CC(C)Oc1cc2c(cc1OC(C)C)-c1n[nH]c(Nc3ccc(F)c(Cl)c3)c1C2', 'inhibition at 10 µM', '%', 92),
  ('COc1cccc2c1Cc1c-2n[nH]c1Nc1cccnc1', 'inhibition at 10 µM', '%', 78.5),
  ('CCOc1cccc(Nc2[nH]nc3c2C(CC)c2cc(OC)c(OC)cc2-3)c1 (stereo not drawn)', 'inhibition at 10 µM', '%', 97),
  ('COCCCOc1ccc2c(c1)Cc1c-2n[nH]c1Nc1cccc(Cl)c1', 'inhibition at 10 µM', '%', 87),
  ('CNC(=O)CCCC(=O)n1nc(Nc2cccc(F)c2)c2c1-c1cc(OC)c(OC)cc1C2', 'inhibition at 10 µM', '%', 97);

----------
molecular target: PDGF-receptor beta enzyme comprising the tyrosine kinase domain (Homo sapiens, UniProt P09619); construct: from amino acid 545 to 1106 of GenBank Access NO: AAA36427; experiment: Inhibition of PDGF-receptor kinase activity (cell-free, PLC1 peptide, 33P Flashplate); format: biochemical; settings: PDGF-R kinase activity; compound at 10 uM; read-out: Percent Inhibition @ 10 uM
Would you mind labelling by inhibition at 10 µM? At or over 90% is condition met, under is condition not met.

INSERT INTO results (smiles_code, answer_label) VALUES
  ('COc1cc2c(cc1OC)-c1c(c(Nc3cccc(F)c3)nn1Cc1ccc(OC(C)=O)cc1)C2', 'condition not met'),
  ('CCOc1cc2c(cc1OCCCO)-c1n[nH]c(Nc3cccc(F)c3)c1C2', 'condition met'),
  ('Nc1ccc2c(c1)Cc1c-2n[nH]c1Nc1ccccc1', 'condition met'),
  ('Fc1cccc(Nc2[nH]nc3c2Cc2cc4c(cc2-3)OCO4)c1', 'condition met'),
  ('OCCCOc1cc2c(cc1OCCCO)-c1n[nH]c(Nc3cccnc3)c1C2', 'condition met'),
  ('COc1ccc(Nc2[nH]nc3c2Cc2ccc(OC)cc2-3)c(OC)c1', 'condition not met'),
  ('COc1cc2c(cc1OCCCN1CCOCC1)Cc1c-2n[nH]c1Nc1cccc(Br)c1', 'condition met'),
  ('Nc1ccc2c(c1)Cc1c-2n[nH]c1Nc1cccc(Br)c1', 'condition met'),
  ('COC(=O)n1nc2c(c1Nc1cccc(F)c1)Cc1cc(OC)c(OC)cc1-2', 'condition not met'),
  ('COc1cc2c(cc1OC)-c1c(c(Nc3cccc(F)c3)nn1C(=O)c1ccccc1)C2', 'condition not met'),
  ('Fc1cccc(Nc2[nH]nc3c2Cc2c(OCCCN4CCOCC4)cccc2-3)c1', 'condition met'),
  ('COc1cccc(Nc2[nH]nc3c2Cc2cc(OCCCO)c(OCCCO)cc2-3)c1', 'condition met'),
  ('COc1ccc(C(=O)n2nc(Nc3cccc(F)c3)c3c2-c2cc(OC)c(OC)cc2C3)cc1', 'condition not met');

----------
biological target: PDGF-receptor beta enzyme comprising the tyrosine kinase domain (Homo sapiens); construct: from amino acid 545 to 1106 of GenBank Access NO: AAA36427; test: Inhibition of PDGF-receptor kinase activity (cell-free, PLC1 peptide, 33P Flashplate); format: biochemical; details: PDGF-R kinase activity; compound at 10 uM; read-out: Percent Inhibition @ 10 uM
Recorded metric: inhibition at 10 µM (%)

INSERT INTO measurements (compound, experimental_result) VALUES
  ('C=C(C)C(=O)OCCNC(=O)n1nc2c(c1Nc1cccc(F)c1)Cc1cc(OC)c(OC)cc1-2', 93.5),
  ('COc1cc2c(cc1OC)-c1n[nH]c(Nc3cccc(C(F)(F)F)c3)c1C2', 92),
  ('CCOc1cccc(Nc2[nH]nc3c2C(C)c2cc(OCC)c(OCC)cc2-3)c1 (centres unmarked)', 101),
  ('Brc1ccc2c(c1)Cc1c-2n[nH]c1Nc1ccccc1', 87.5),
  ('COc1cc2c(cc1OC)-c1n[nH]c(Nc3c(OC)ccnc3OC)c1C2', 99),
  ('COC(=O)C(NC(=O)n1nc(Nc2cccc(F)c2)c2c1-c1cc(OC)c(OC)cc1C2)C(C)C (centres unmarked)', 71.5),
  ('CN(C)CCCOc1ccc2c(c1)Cc1c-2n[nH]c1Nc1ccc(F)cc1', 92.5),
  ('CCOc1cc2c(cc1OCCCO)-c1n[nH]c(Nc3cccnc3)c1C2', 100),
  ('COc1cc2c(cc1OC)-c1c(c(Nc3cccc(F)c3)nn1C(=O)C(C)C)C2', 84.5),
  ('COc1cc2c(cc1OC)C(C)c1c-2n[nH]c1NCc1c(Cl)cccc1Cl (single isomer, unassigned)', 100),
  ('COc1cc2c(cc1OCCCN1CCN(C)CC1)Cc1c-2n[nH]c1Nc1ccc(F)c(Cl)c1', 46),
  ('COc1cc2c(cc1OC)-c1n[nH]c(NCCN3CCCCC3)c1C2', 29),
  ('CCC1c2cc(OC)c(OC)cc2-c2nn(C(=O)COCc3ccccc3)c(Nc3cccc(Br)c3)c21 (centres unmarked)', 92.5),
  ('COc1cc2c(cc1OC)-c1n[nH]c(Nc3ccc(OC(F)(F)F)cc3)c1C2', 79),
  ('COc1cc2c(cc1OC)-c1n[nH]c(Nc3cccc(C#N)c3)c1C2', 71),
  ('COc1cc2c(cc1OC)-c1c(c(Nc3cccc(F)c3)nn1C(=O)NCCN1CCOCC1)C2', 97),
  ('COc1cc2c(cc1OC)-c1nn(C)c(Nc3cccc(F)c3)c1C2', 51.5);

----------
target: PDGF-receptor beta enzyme comprising the tyrosine kinase domain (Homo sapiens, UniProt P09619); construct: from amino acid 545 to 1106 of GenBank Access NO: AAA36427; experiment: Inhibition of PDGF-receptor kinase activity (cell-free, PLC1 peptide, 33P Flashplate); assay type: biochemical; conditions: PDGF-R kinase activity; compound at 10 uM; read-out: Percent Inhibition @ 10 uM
Recorded metric: inhibition at 10 µM (%)

INSERT INTO results (compound, experimental_result) VALUES
  ('COc1cc2c(cc1OC)C(C)(C)c1c-2n[nH]c1Nc1cccc(F)c1', 43),
  ('COc1cc2c(cc1OC)-c1n[nH]c(Nc3ccccc3C)c1C2', 59),
  ('FC(F)(F)c1ccc(Nc2[nH]nc3c2Cc2cc(Cl)ccc2-3)cc1', 49),
  ('O=C1c2ccccc2-c2n[nH]c(Nc3ccccc3)c21', 88),
  ('COc1cc2c(cc1OC)-c1c(c(Nc3cccc(F)c3)nn1C(=O)Oc1ccc(F)cc1)C2', 80.5),
  ('COc1cc2c(cc1OC)-c1n[nH]c(Nc3ncccc3C)c1C2', 86),
  ('COc1cc2c(cc1OC)-c1n[nH]c(NCc3cc(Cl)cc(Cl)c3)c1C2', 54.5),
  ('COc1cc2c(cc1OC)-c1c(c(Nc3cccc(F)c3)nn1C(=O)NCCN)C2', 68.5),
  ('CCCC(=O)OCn1nc(Nc2cccc(F)c2)c2c1-c1cc(OC)c(OC)cc1C2', 96),
  ('CC(C)Oc1cc2c(cc1OC(C)C)C(C)c1c-2n[nH]c1Nc1cccc(Br)c1 (stereo not drawn)', 88),
  ('COc1cc2c(cc1OC)-c1n[nH]c(Nc3ccc(Br)cc3)c1C2', 86),
  ('Cc1ccc2c(c1)-c1n[nH]c(Nc3cccc(F)c3)c1C2', 107),
  ('COc1cc2c(cc1OC)-c1n[nH]c(NCc3cccc(Cl)c3)c1C2', 100),
  ('COc1cc2c(cc1OC)-c1n[nH]c(Nc3cccc(C)c3)c1C2', 79),
  ('CCOc1cc2c(cc1OCC)-c1n[nH]c(NCc3ccccc3OC)c1C2', 72.5),
  ('CCOc1cc2c(cc1OCC)-c1n[nH]c(Nc3ccc(F)c(Cl)c3)c1C2', 77),
  ('COc1cc2c(cc1OC)-c1n[nH]c(Nc3ccc(C)cc3)c1C2', 59),
  ('CCOc1cc2c(cc1OCC)-c1n[nH]c(NCc3c(Cl)cccc3Cl)c1C2', 81.5);
